Provide the recorded self-cleavage for the entries that follow.
B1: LINE1-mini (parent)
chain: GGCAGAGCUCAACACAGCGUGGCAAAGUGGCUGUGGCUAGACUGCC

- Variants of: B1
- assay_notes: self-cleavage, relative activity (ratio to wild type); higher = more cleavage; in vitro, sequencing; the parent is a self-cleaving ribozyme
Number only, please.

Exercise: Name the reported self-cleavage value associated with the variant C8U C42G
Key: 0.13

Exercise: Name the reported self-cleavage value associated with the variant A6C A24U
Key: 1.07

Exercise: Name the reported self-cleavage value associated with the variant A11U G33U
Key: 0.04

Exercise: Name the reported self-cleavage value associated with the variant G7U A39U
Key: 0.1

Exercise: Name the reported self-cleavage value associated with the variant A16G G30U
Key: 0.31

Exercise: Name the reported self-cleavage value associated with the variant C18U U20C
Key: 0.98

Exercise: Name the reported self-cleavage value associated with the variant C10U A24G
Key: 0.35

Exercise: Name the reported self-cleavage value associated with the variant A39C C42U
Key: 0.05

Exercise: Name the reported self-cleavage value associated with the variant A12G C46G
Key: 0.05

Exercise: Name the reported self-cleavage value associated with the variant G19A C42A
Key: 0.34

Exercise: Name the reported self-cleavage value associated with the variant A16G A25U
Key: 0.31

Exercise: Name the reported self-cleavage value associated with the variant C3A U28G
Key: 0.42

Exercise: Name the reported self-cleavage value associated with the variant G7A U20C
Key: 0.07

Exercise: Name the reported self-cleavage value associated with the variant `C23A`
Key: 1.01

Exercise: Name the reported self-cleavage value associated with the variant U28C G29C
Key: 1.2

Exercise: Name the reported self-cleavage value associated with the variant C10A G40U
Key: 0.03

Exercise: Name the reported self-cleavage value associated with the variant G19A C45G
Key: 0.38

Exercise: Name the reported self-cleavage value associated with the variant A14U A24U
Key: 0.42

Exercise: Name the reported self-cleavage value associated with the variant C18G G36A
Key: 0.1

Exercise: Name the reported self-cleavage value associated with the variant U32A A41G
Key: 0.04

Exercise: Name the reported self-cleavage value associated with the variant C3U G29A
Key: 0.26

Exercise: Name the reported self-cleavage value associated with the variant G7A U43G
Key: 0.57

Exercise: Name the reported self-cleavage value associated with the variant G1C G29A
Key: 0.16

Exercise: Name the reported self-cleavage value associated with the variant G1C U9G
Key: 0.02

Exercise: Name the reported self-cleavage value associated with the variant G2A C10G
Key: 0.11

Exercise: Name the reported self-cleavage value associated with the variant U20C G40U
Key: 0.1

Exercise: Name the reported self-cleavage value associated with the variant G22C A39U
Key: 0.55

Exercise: Name the reported self-cleavage value associated with the variant U38C C46G
Key: 0.64

Exercise: Name the reported self-cleavage value associated with the variant U9C A24C
Key: 0.02

Exercise: Name the reported self-cleavage value associated with the variant G33A U34C
Key: 0.09

Exercise: Name the reported self-cleavage value associated with the variant A4U G17A
Key: 0.06

Exercise: Name the reported self-cleavage value associated with the variant G1C A4G
Key: 0.07

Exercise: Name the reported self-cleavage value associated with the variant C3G C18G
Key: 0.15

Exercise: Name the reported self-cleavage value associated with the variant U9G C18G
Key: 0.04

Exercise: Name the reported self-cleavage value associated with the variant U28A G30A
Key: 1.65

Exercise: Name the reported self-cleavage value associated with the variant G19U U28G
Key: 0.73

Exercise: Name the reported self-cleavage value associated with the variant G5U G21U
Key: 0.1

Exercise: Name the reported self-cleavage value associated with the variant A14G C46U
Key: 0.26

Exercise: Name the reported self-cleavage value associated with the variant U28C G35U
Key: 0.09

Exercise: Name the reported self-cleavage value associated with the variant C10U G33C
Key: 0.04

Exercise: Name the reported self-cleavage value associated with the variant A25U U28G
Key: 0.82

Exercise: Name the reported self-cleavage value associated with the variant A6U A39C
Key: 0.51

Exercise: Name the reported self-cleavage value associated with the variant C10A G35A
Key: 0.04

Exercise: Name the reported self-cleavage value associated with the variant A14C G22A
Key: 0.18

Exercise: Name the reported self-cleavage value associated with the variant A6U A25C
Key: 0.65

Exercise: Name the reported self-cleavage value associated with the variant G1C G33U
Key: 0.04

Exercise: Name the reported self-cleavage value associated with the variant G22A A25G
Key: 1.23

Exercise: Name the reported self-cleavage value associated with the variant C18A C46U
Key: 0.65

Exercise: Name the reported self-cleavage value associated with the variant A14C C23G
Key: 0.11

Exercise: Name the reported self-cleavage value associated with the variant C31U G44U
Key: 0.05

Exercise: Name the reported self-cleavage value associated with the variant A6C U38A
Key: 0.28

Exercise: Name the reported self-cleavage value associated with the variant C37U A39C
Key: 0.14

Exercise: Name the reported self-cleavage value associated with the variant G5C G40U
Key: 0.1

Exercise: Name the reported self-cleavage value associated with the variant G5C C31A
Key: 0.08

Exercise: Name the reported self-cleavage value associated with the variant `G1A`
Key: 1.11

Exercise: Name the reported self-cleavage value associated with the variant U28C C42A
Key: 0.16

Exercise: Name the reported self-cleavage value associated with the variant C8A C18G
Key: 0.15

Exercise: Name the reported self-cleavage value associated with the variant G17U U43C
Key: 0.06

Exercise: Name the reported self-cleavage value associated with the variant A11C A26C
Key: 0.03

Exercise: Name the reported self-cleavage value associated with the variant A11C G30A
Key: 0.08

Exercise: Name the reported self-cleavage value associated with the variant A6C U20G
Key: 0.35

Exercise: Name the reported self-cleavage value associated with the variant G2U G22U
Key: 0.11

Exercise: Name the reported self-cleavage value associated with the variant C23A G36A
Key: 0.17

Exercise: Name the reported self-cleavage value associated with the variant C10G C18G
Key: 0.04

Exercise: Name the reported self-cleavage value associated with the variant G17C C45U
Key: 0.84

Exercise: Name the reported self-cleavage value associated with the variant A16U U38A
Key: 0.1

Exercise: Name the reported self-cleavage value associated with the variant U38A G40U
Key: 0.18

Exercise: Name the reported self-cleavage value associated with the variant C37A A41G
Key: 0.12

Exercise: Name the reported self-cleavage value associated with the variant A12U U34G
Key: 0.04

Exercise: Name the reported self-cleavage value associated with the variant A26U U38C
Key: 0.48

Exercise: Name the reported self-cleavage value associated with the variant G7A A12C
Key: 0.02

Exercise: Name the reported self-cleavage value associated with the variant G30U U32A
Key: 0.13

Exercise: Name the reported self-cleavage value associated with the variant G17C A41G
Key: 0.27

Exercise: Name the reported self-cleavage value associated with the variant U28A G36C
Key: 0.06

Exercise: Name the reported self-cleavage value associated with the variant A14U U38C
Key: 0.17

Exercise: Name the reported self-cleavage value associated with the variant U34G A41G
Key: 0.05

Exercise: Name the reported self-cleavage value associated with the variant A12C A16G
Key: 0.02

Exercise: Name the reported self-cleavage value associated with the variant C3G A24C
Key: 0.35

Exercise: Name the reported self-cleavage value associated with the variant C42G C45G
Key: 0.09

Exercise: Name the reported self-cleavage value associated with the variant A4C U28C
Key: 0.22

Exercise: Name the reported self-cleavage value associated with the variant C37A C45A
Key: 0.19
